- testTarget: human Nav1.8 (Homo sapiens (Human), UniProt Q9Y5Y9)
- Sequence (Q9Y5Y9 whole entry): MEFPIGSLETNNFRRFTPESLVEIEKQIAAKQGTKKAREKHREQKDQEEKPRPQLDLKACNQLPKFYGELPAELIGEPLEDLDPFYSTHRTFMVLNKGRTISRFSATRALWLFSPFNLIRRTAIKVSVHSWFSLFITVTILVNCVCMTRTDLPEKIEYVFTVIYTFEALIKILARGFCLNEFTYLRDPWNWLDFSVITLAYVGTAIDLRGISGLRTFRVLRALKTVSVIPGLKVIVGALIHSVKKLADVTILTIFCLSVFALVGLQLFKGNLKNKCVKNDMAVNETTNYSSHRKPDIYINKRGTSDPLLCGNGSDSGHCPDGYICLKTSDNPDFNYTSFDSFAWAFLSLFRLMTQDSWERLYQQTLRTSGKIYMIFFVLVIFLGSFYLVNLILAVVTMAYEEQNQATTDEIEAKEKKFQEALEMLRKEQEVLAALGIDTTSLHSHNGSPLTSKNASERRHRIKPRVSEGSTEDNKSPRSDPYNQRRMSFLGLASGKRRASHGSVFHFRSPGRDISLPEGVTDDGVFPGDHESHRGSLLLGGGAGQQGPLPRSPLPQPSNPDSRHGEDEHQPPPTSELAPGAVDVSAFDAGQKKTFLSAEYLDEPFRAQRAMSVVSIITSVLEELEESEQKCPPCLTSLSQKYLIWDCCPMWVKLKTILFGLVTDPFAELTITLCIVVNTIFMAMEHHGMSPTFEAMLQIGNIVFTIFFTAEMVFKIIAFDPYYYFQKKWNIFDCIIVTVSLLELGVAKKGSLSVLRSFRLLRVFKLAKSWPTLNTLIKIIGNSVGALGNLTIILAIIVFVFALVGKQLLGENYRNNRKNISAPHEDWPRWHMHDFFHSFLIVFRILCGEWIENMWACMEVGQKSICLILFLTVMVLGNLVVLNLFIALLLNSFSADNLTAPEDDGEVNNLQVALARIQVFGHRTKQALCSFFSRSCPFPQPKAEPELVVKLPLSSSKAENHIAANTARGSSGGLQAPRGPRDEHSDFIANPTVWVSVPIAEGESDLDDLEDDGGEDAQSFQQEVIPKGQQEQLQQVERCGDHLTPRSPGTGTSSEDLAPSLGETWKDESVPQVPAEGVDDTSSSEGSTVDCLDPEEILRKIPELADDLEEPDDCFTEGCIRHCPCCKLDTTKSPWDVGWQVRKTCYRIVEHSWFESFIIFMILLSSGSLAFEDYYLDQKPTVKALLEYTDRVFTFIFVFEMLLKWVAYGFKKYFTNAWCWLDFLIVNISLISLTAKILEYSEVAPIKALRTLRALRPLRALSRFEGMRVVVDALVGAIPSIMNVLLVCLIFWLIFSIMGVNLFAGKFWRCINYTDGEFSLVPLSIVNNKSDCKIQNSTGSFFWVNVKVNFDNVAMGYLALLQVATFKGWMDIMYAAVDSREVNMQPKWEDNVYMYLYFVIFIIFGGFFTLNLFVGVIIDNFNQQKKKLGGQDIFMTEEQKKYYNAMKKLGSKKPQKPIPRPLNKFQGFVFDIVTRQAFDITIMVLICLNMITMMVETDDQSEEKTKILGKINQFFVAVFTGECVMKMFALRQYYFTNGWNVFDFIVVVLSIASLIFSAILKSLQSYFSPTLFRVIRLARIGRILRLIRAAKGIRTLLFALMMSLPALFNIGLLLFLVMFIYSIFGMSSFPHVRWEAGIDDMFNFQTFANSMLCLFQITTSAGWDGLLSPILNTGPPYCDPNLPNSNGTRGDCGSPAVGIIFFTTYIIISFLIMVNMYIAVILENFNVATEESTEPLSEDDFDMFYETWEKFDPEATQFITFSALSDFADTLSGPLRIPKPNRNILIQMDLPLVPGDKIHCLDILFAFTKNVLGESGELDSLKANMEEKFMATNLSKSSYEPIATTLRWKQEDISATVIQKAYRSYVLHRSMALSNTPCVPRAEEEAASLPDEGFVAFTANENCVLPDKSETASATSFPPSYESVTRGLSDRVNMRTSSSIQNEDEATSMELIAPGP
- procedureSummary: E-VIPR optical membrane potential assay with electrical stimulation
- cond: HEK cells expressing human Nav1.8
pIC50: −log10 of the molar value.
propertyLabel: pIC50

# annotated cases, reported pIC50 shown
[
  {
    "cpdSmiles": "COc1ccc(Oc2ccc(C(F)(F)F)cc2C(=O)Nc2cccc(S(N)(=O)=O)c2)c(Cl)c1",
    "pIC50": 8.22
  },
  {
    "cpdSmiles": "COc1cc(Cl)ccc1Oc1cc(Cl)cc(Cl)c1C(=O)Nc1cccc(S(N)(=O)=O)c1",
    "pIC50": 9.10
  },
  {
    "cpdSmiles": "COc1ccc(Oc2cccc(C(F)(F)F)c2C(=O)Nc2cccc(S(N)(=O)=O)c2)cc1F",
    "pIC50": 7.55
  },
  {
    "cpdSmiles": "Cc1cc(F)ccc1Oc1ccc(F)cc1C(=O)Nc1cccc(S(N)(=O)=O)c1",
    "pIC50": 7.64
  },
  {
    "cpdSmiles": "NS(=O)(=O)c1cccc(NC(=O)c2ccc(OC(F)(F)F)cc2Oc2ccccc2Cl)c1",
    "pIC50": 7.57
  }
]

(a) COc1ccc(Oc2cc(C(F)(F)F)ccc2C(=O)Nc2cccc(S(N)(=O)=O)c2)c(OC)c1
(b) NS(=O)(=O)c1cccc(NC(=O)c2cc(C(F)(F)F)ccc2Oc2ccc(F)cc2Cl)c1
Which gives the smaller pIC50 number: a or b ? Selection: enter the item's label.
a
(a: 8.10, b: 8.40)

* * *

- testTarget: human Nav1.8 (Homo sapiens (Human), UniProt Q9Y5Y9)
- procedureSummary: E-VIPR optical membrane potential assay with electrical stimulation
- cond: HEK cells expressing human Nav1.8
propertyLabel: IC50 (nM)

[
  {
    "compound": "COc1ccc(Oc2cc(Cl)ccc2C(=O)Nc2cccc(S(N)(=O)=O)c2)c(OC)c1 [Compound 84]",
    "unitLabel": "nM",
    "IC50": 13
  },
  {
    "compound": "COc1cc(F)ccc1Oc1ccc(C(F)(F)F)cc1C(=O)Nc1cccc(S(N)(=O)=O)c1 [Compound 27]",
    "unitLabel": "nM",
    "IC50": 6
  }
]

(1) COc1cc(Cl)ccc1Oc1cc(C(F)(F)C(F)(F)F)ccc1C(=O)Nc1cccc(S(N)(=O)=O)c1 [Compound 71]
(2) Cc1cc(F)ccc1Oc1cc(C(F)(F)F)ccc1C(=O)Nc1cccc(S(N)(=O)=O)c1 [Compound 18]
Which gives the smaller IC50 number: 1 or 2 ? Selection: enter the item's label.
2
(2: 7 nM, 1: 28 nM)

* * *

- testTarget: UniProt Q9Y5Y9
- procedureSummary: E-VIPR optical membrane potential assay with electrical stimulation
- Assay type: cell-based
- cond: HEK cells expressing human Nav1.8
propertyLabel: IC50 (nM)

# annotated cases, reported IC50 shown
[
  {
    "cpdSmiles": "COc1ccc(Oc2cc(OC(F)(F)F)ccc2C(=O)Nc2cccc(S(N)(=O)=O)c2)c(Cl)c1",
    "IC50 (nM)": 16
  },
  {
    "cpdSmiles": "NS(=O)(=O)c1cccc(NC(=O)c2c(Oc3ccccc3Cl)cccc2C(F)(F)F)c1",
    "IC50 (nM)": 15
  }
]

(a) COc1ccc(Oc2cc(C(F)(F)F)ccc2C(=O)Nc2cccc(S(N)(=O)=O)c2)cc1Cl
(b) COc1c(F)cccc1Oc1cc(C(F)(F)F)ccc1C(=O)Nc1cccc(S(N)(=O)=O)c1
(c) COc1ccc(Oc2cc(Cl)c(Cl)cc2C(=O)Nc2cccc(S(N)(=O)=O)c2)cc1F
Given 3 compounds, produce a descending ranking by IC50. Answer by writing out the labels in the requested order.
a, b, c
(a: 26 nM, b: 11 nM, c: 4 nM)

* * *

- testTarget: human Nav1.8 (Homo sapiens (Human), UniProt Q9Y5Y9)
- procedureSummary: E-VIPR optical membrane potential assay with electrical stimulation
- cond: HEK cells expressing human Nav1.8
pIC50: −log10 of the molar value.
propertyLabel: pIC50

# annotated cases, reported pIC50 shown
[
  {
    "cpdSmiles": "COc1cc(F)ccc1Oc1ccc(Cl)cc1C(=O)Nc1cccc(S(N)(=O)=O)c1",
    "pIC50": 8.15
  },
  {
    "cpdSmiles": "Cc1cc(Cl)ccc1Oc1ccc(C(F)(F)F)cc1C(=O)Nc1cccc(S(N)(=O)=O)c1",
    "pIC50": 8.05
  },
  {
    "cpdSmiles": "Cc1ccccc1Oc1ccc(C(F)(F)F)cc1C(=O)Nc1cccc(S(N)(=O)=O)c1",
    "pIC50": 8.10
  },
  {
    "cpdSmiles": "COc1ccc(Oc2cc(C(F)(F)C(F)(F)F)ccc2C(=O)Nc2cccc(S(N)(=O)=O)c2)c(Cl)c1",
    "pIC50": 7.70
  },
  {
    "cpdSmiles": "COc1ccc(Oc2cc(C(F)(F)F)ccc2C(=O)Nc2cccc(S(N)(=O)=O)c2)c(Cl)c1",
    "pIC50": 8.00
  }
]

(1) CCCOc1ccccc1Oc1cc(C(F)(F)F)ccc1C(=O)Nc1cccc(S(N)(=O)=O)c1
(2) COc1ccc(Oc2cc(Cl)c(Cl)cc2C(=O)Nc2cccc(S(N)(=O)=O)c2)c(Cl)c1
Which gives the smaller pIC50 number: 1 or 2 ? Selection: enter the item's label.
1
(1: 7.85, 2: 8.22)

* * *

- procedureSummary: Human liver microsome assay
- Format: in vitro ADME
- cond: 1 uM substrate, 0.5 mg/mL liver microsome, 2 mM NADPH, 37° C., referenced against time zero control
propertyLabel: HLM: percent unchanged after 30 min (%)

# annotated cases, reported HLM: percent unchanged after 30 min shown
[
  {
    "compound": "NS(=O)(=O)c1cccc(NC(=O)c2ccc(Cl)cc2Oc2ccc(F)cc2Cl)c1 [Compound 8]",
    "propertyLabel": "HLM: percent unchanged after 30 min",
    "experimentalValue": 108
  },
  {
    "compound": "Cc1c(F)cccc1Oc1cccc(C(F)(F)F)c1C(=O)Nc1cccc(S(N)(=O)=O)c1 [Compound 59]",
    "propertyLabel": "HLM: percent unchanged after 30 min",
    "experimentalValue": 66
  },
  {
    "compound": "NS(=O)(=O)c1cccc(NC(=O)c2ccc(C(F)(F)F)cc2Oc2ccc(OC(F)(F)F)cc2)c1 [Compound 51]",
    "propertyLabel": "HLM: percent unchanged after 30 min",
    "experimentalValue": 89
  },
  {
    "compound": "COc1ccc(Oc2cccc(C(F)(F)F)c2C(=O)Nc2cccc(S(N)(=O)=O)c2)c(Cl)c1 [Compound 75]",
    "propertyLabel": "HLM: percent unchanged after 30 min",
    "experimentalValue": 62
  },
  {
    "compound": "NS(=O)(=O)c1cccc(NC(=O)c2ccc(C(F)(F)C(F)(F)F)cc2Oc2ccc(F)cc2)c1 [Compound 69]",
    "propertyLabel": "HLM: percent unchanged after 30 min",
    "experimentalValue": 110
  },
  {
    "compound": "NS(=O)(=O)c1cccc(NC(=O)c2cc(C(F)F)ccc2Oc2ccc(F)cc2Cl)c1 [Compound 40]",
    "propertyLabel": "HLM: percent unchanged after 30 min",
    "experimentalValue": 107
  }
]

(A) CC(C)Oc1ccc(Oc2cc(C(F)(F)F)ccc2C(=O)Nc2cccc(S(N)(=O)=O)c2)cc1 [Compound 53]
(B) NS(=O)(=O)c1cccc(NC(=O)c2cc(C(F)(F)F)ccc2Oc2ccc(Cl)cc2)c1 [Compound 24]
Lab note: check whether A or B shows the higher recorded HLM: percent unchanged after 30 min. Selection: enter the item's label.
B
(B: 102%, A: 71%)

* * *

- procedureSummary: Human liver microsome assay
- Assay type: in vitro ADME
- cond: 1 uM substrate, 0.5 mg/mL liver microsome, 2 mM NADPH, 37° C., referenced against time zero control
propertyLabel: HLM: percent unchanged after 30 min (%)

# annotated cases, reported HLM: percent unchanged after 30 min shown
[
  {
    "molecule": "CC(C)Oc1ccc(Oc2ccc(C(F)(F)F)cc2C(=O)Nc2cccc(S(N)(=O)=O)c2)cc1 [Compound 37]",
    "unitLabel": "%",
    "experimentalValue": 76
  },
  {
    "molecule": "Cc1cc(F)ccc1Oc1cc(Cl)cc(Cl)c1C(=O)Nc1cccc(S(N)(=O)=O)c1 [Compound 96]",
    "unitLabel": "%",
    "experimentalValue": 96
  }
]

(1) COc1ccc(Oc2cc(C(F)(F)F)ccc2C(=O)Nc2cccc(S(N)(=O)=O)c2)c(OC)c1 [Compound 50]
(2) COc1cc(Cl)ccc1Oc1cc(Cl)c(Cl)cc1C(=O)Nc1cccc(S(N)(=O)=O)c1 [Compound 80]
Lab note: check whether 1 or 2 shows the higher recorded HLM: percent unchanged after 30 min. Selection: enter the item's label.
2
(2: 108%, 1: 72%)

Every entry's value here was drawn from patent US11203571B2.
